All figures here come from the OligoGym collection.

subjectOfTest: P2rx2 (rat)
protocolSummary: reporter assay of Huesken 2005
conditionContext: siRNA
Oligonucleotides are written 5' to 3', each unit as a sugar letter and its base; * is a phosphorothioate linkage, no mark a phosphodiester; rarer units and linkages stand in square brackets, end groups in braces. Plain capitals give the bases only. d = 2'-deoxy (DNA); r = 2'-OH (RNA)
Measured normalised inhibition (eCFP-eYFP dual reporter), listed per entry for reference.
measuredEndpoint: normalised inhibition (eCFP-eYFP dual reporter) (%)

substance: sense rCrUrGrArCrArArCrCrArUrUrUrUrCrUrGrGrGdTdT / antisense rCrCrCrArGrArArArArUrGrGrUrUrGrUrCrArGdAdA
endpointUnit: %
assayValue: 40.3
//
substance: sense rUrGrCrCrArArGrUrArUrUrArCrArArGrArUrAdTdT / antisense rUrArUrCrUrUrGrUrArArUrArCrUrUrGrGrCrAdAdA
endpointUnit: %
assayValue: 76.8
//
substance: sense rUrUrCrArCrArGrCrUrCrUrArCrCrUrGrCrCrAdTdT / antisense rUrGrGrCrArGrGrUrArGrArGrCrUrGrUrGrArAdCdC
endpointUnit: %
assayValue: 51.7
//
substance: sense rCrArUrUrGrUrUrGrArGrArArGrGrCrArGrGrAdTdT / antisense rUrCrCrUrGrCrCrUrUrCrUrCrArArCrArArUrGdAdA
endpointUnit: %
assayValue: 61.4
//
substance: sense rCrArGrCrArUrArUrGrGrGrArCrArArArGrArCdTdT / antisense rGrUrCrUrUrUrGrUrCrCrCrArUrArUrGrCrUrGdGdC
endpointUnit: %
assayValue: 51.7
//
substance: sense rArArArGrUrCrArArGrGrGrGrArUrCrArCrCrAdTdT / antisense rUrGrGrUrGrArUrCrCrCrCrUrUrGrArCrUrUrUdGdG
endpointUnit: %
assayValue: 66.2
//
substance: sense rArCrGrUrCrUrUrCrArUrCrGrUrGrCrArGrArAdTdT / antisense rUrUrCrUrGrCrArCrGrArUrGrArArGrArCrGrUdAdC
endpointUnit: %
assayValue: 85.2
//
substance: sense rUrCrGrUrGrCrArGrArArArArGrCrUrArCrCrAdTdT / antisense rUrGrGrUrArGrCrUrUrUrUrCrUrGrCrArCrGrAdTdG
endpointUnit: %
assayValue: 74.2
//
substance: sense rCrUrCrCrArUrCrGrGrGrGrUrGrGrGrCrUrCrCdTdT / antisense rGrGrArGrCrCrCrArCrCrCrCrGrArUrGrGrArGdGdT
endpointUnit: %
assayValue: 38.5
//
substance: sense rArCrArArGrArUrArArArCrGrGrCrArCrUrArCdTdT / antisense rGrUrArGrUrGrCrCrGrUrUrUrArUrCrUrUrGrUdAdA
endpointUnit: %
assayValue: 50.6
//
substance: sense rArGrUrCrArCrUrArCrUrCrCrCrArGrGrArUrCdTdT / antisense rGrArUrCrCrUrGrGrGrArGrUrArGrUrGrArCrUdAdG
endpointUnit: %
assayValue: 64.6
//
substance: sense rGrArCrArGrCrUrGrGrArCrArUrGrCrArArGrGdTdT / antisense rCrCrUrUrGrCrArUrGrUrCrCrArGrCrUrGrUrCdCdG
endpointUnit: %
assayValue: 35.3

---

subjectOfTest: UBE2E3
protocolSummary: reporter assay of Huesken 2005
conditionContext: siRNA
Oligonucleotides are written 5' to 3', each unit as a sugar letter and its base; * is a phosphorothioate linkage, no mark a phosphodiester; rarer units and linkages stand in square brackets, end groups in braces. Plain capitals give the bases only. d = 2'-deoxy (DNA); r = 2'-OH (RNA)
Each entry below lists one item and its recorded normalised inhibition (eCFP-eYFP dual reporter) value.
measuredEndpoint: normalised inhibition (eCFP-eYFP dual reporter) (%)

substance: sense rCrArGrUrGrGrCrArGrUrUrCrArGrArUrGrCrGdTdT / antisense rCrGrCrArUrCrUrGrArArCrUrGrCrCrArCrUrGdCdT
assayValue: 53

substance: sense rUrArCrUrUrUrCrCrGrCrArCrCrArGrArArUrCdTdT / antisense rGrArUrUrCrUrGrGrUrGrCrGrGrArArArGrUrAdAdC
assayValue: 49.2

substance: sense rArCrArCrCrArArArCrUrCrUrCrUrArGrCrArAdTdT / antisense rUrUrGrCrUrArGrArGrArGrUrUrUrGrGrUrGrUdTdT
assayValue: 90.1

---

subjectOfTest: UFC1
protocolSummary: reporter assay of Huesken 2005
conditionContext: siRNA
Oligonucleotides are written 5' to 3', each unit as a sugar letter and its base; * is a phosphorothioate linkage, no mark a phosphodiester; rarer units and linkages stand in square brackets, end groups in braces. Plain capitals give the bases only. d = 2'-deoxy (DNA); r = 2'-OH (RNA)
Measured normalised inhibition (eCFP-eYFP dual reporter), listed per entry.
measuredEndpoint: normalised inhibition (eCFP-eYFP dual reporter) (%)

substance: sense rUrGrCrCrCrCrArGrArArArUrUrGrCrArGrUrUdTdT / antisense rArArCrUrGrCrArArUrUrUrCrUrGrGrGrGrCrAdGdT
subjectOfTest: UFC1
assayValue: 44.9

substance: sense rArCrUrArGrCrUrCrArUrCrUrCrArUrGrGrCrUdTdT / antisense rArGrCrCrArUrGrArGrArUrGrArGrCrUrArGrUdCdC
subjectOfTest: UFC1
assayValue: 53.8

substance: sense rArArGrArCrArGrCrArArArGrArUrGrUrArCrAdTdT / antisense rUrGrUrArCrArUrCrUrUrUrGrCrUrGrUrCrUrUdTdC
subjectOfTest: UFC1
assayValue: 113

---

subjectOfTest: UBE2H
protocolSummary: reporter assay of Huesken 2005
conditionContext: siRNA
Oligonucleotides are written 5' to 3', each unit as a sugar letter and its base; * is a phosphorothioate linkage, no mark a phosphodiester; rarer units and linkages stand in square brackets, end groups in braces. Plain capitals give the bases only. d = 2'-deoxy (DNA); r = 2'-OH (RNA)
Cut-off 70% on normalised inhibition (eCFP-eYFP dual reporter), inclusive. At or above means true; below means false.

substance: sense rCrArGrCrCrArUrGrUrArCrCrUrCrCrArCrCrGdTdT / antisense rCrGrGrUrGrGrArGrGrUrArCrArUrGrGrCrUrGdCdA
qualitativeLabel: false

substance: sense rCrCrArCrCrGrArCrCrArGrArArGrArArUrArCdTdT / antisense rGrUrArUrUrCrUrUrCrUrGrGrUrCrGrGrUrGrGdAdG
qualitativeLabel: true

substance: sense rCrArArGrGrArArCrArCrCrArUrArUrGrArArGdTdT / antisense rCrUrUrCrArUrArUrGrGrUrGrUrUrCrCrUrUrGdTdG
qualitativeLabel: true

substance: sense rGrArArCrUrGrUrGrUrGrUrCrUrArGrArUrGrUdTdT / antisense rArCrArUrCrUrArGrArCrArCrArCrArGrUrUrCdCdT
qualitativeLabel: true

substance: sense rArUrUrUrGrArGrUrCrCrUrUrCrCrUrGrCrCrUdTdT / antisense rArGrGrCrArGrGrArArGrGrArCrUrCrArArArUdAdT
qualitativeLabel: false

---

subjectOfTest: Cacnb1 (rat)
protocolSummary: reporter assay of Huesken 2005
conditionContext: siRNA
Oligonucleotides are given in HELM: sugar(base)linkage, 5' to 3'; d 2'-deoxyribose, r ribose, m 2'-O-methylribose, p phosphate. ss, as = sense and antisense strand
Recorded measurements of normalised inhibition (eCFP-eYFP dual reporter), one per entry
measuredEndpoint: normalised inhibition (eCFP-eYFP dual reporter)

substance: RNA1{r(C)p.r(C)p.r(A)p.r(A)p.r(G)p.r(G)p.r(A)p.r(C)p.r(U)p.r(U)p.r(C)p.r(C)p.r(U)p.r(G)p.r(C)p.r(A)p.r(C)p.r(A)p.r(U)p.d(T)p.d(T)}|RNA2{r(A)p.r(U)p.r(G)p.r(U)p.r(G)p.r(C)p.r(A)p.r(G)p.r(G)p.r(A)p.r(A)p.r(G)p.r(U)p.r(C)p.r(C)p.r(U)p.r(U)p.r(G)p.r(G)p.d(G)p.d(C)}$$$RNA1{StrandType:ss}|RNA2{StrandType:as}$
assayValue: 63.2%

substance: RNA1{r(U)p.r(C)p.r(C)p.r(U)p.r(G)p.r(C)p.r(A)p.r(C)p.r(A)p.r(U)p.r(C)p.r(A)p.r(A)p.r(G)p.r(G)p.r(A)p.r(G)p.r(A)p.r(A)p.d(T)p.d(T)}|RNA2{r(U)p.r(U)p.r(C)p.r(U)p.r(C)p.r(C)p.r(U)p.r(U)p.r(G)p.r(A)p.r(U)p.r(G)p.r(U)p.r(G)p.r(C)p.r(A)p.r(G)p.r(G)p.r(A)p.d(A)p.d(G)}$$$RNA1{StrandType:ss}|RNA2{StrandType:as}$
assayValue: 94%
